# Tested on: NCI-H226 lung
# Assay summary: NCI-60 one-dose screen, 48 h (100 = growth as untreated, 0 = no growth, -100 = all killed)
# Experimental setup: 10 µM unless noted
This is part of a sample that, as a whole, favours compounds with a hit. Of some 83,000 tested, about 20% had one in any assay.
Criterion: growth strictly less than 70%. Met: criterion met. Not met: criterion not met.

[
  {
    "Compound structure": "N=c1c(S(=O)(=O)c2ccccc2)cc2c(=O)n3ccccc3nc2n1C1CCCC1",
    "Group label": "criterion not met"
  },
  {
    "Compound structure": "Cn1c2ccccc2c2c3c(c4c5cccnc5[nH]c4c21)C(=O)N(O)C3=O",
    "Group label": "criterion not met"
  },
  {
    "Compound structure": "NCCn1cc(-c2nc(-c3c[nH]c4ncccc34)cs2)c2cc(F)ccc21",
    "Group label": "criterion not met"
  },
  {
    "Compound structure": "O=C1c2ccccc2C(=Cc2ccccc2)c2ccccc21",
    "Group label": "criterion met"
  },
  {
    "Compound structure": "C=C(C)[C@@H]1CC[C@]2(C(=O)OC)CC[C@]3(C)[C@H](CC[C@@H]4[C@@](C)(CC/C(N)=N/O)[C@H](C(=C)C)CC[C@]43C)[C@@H]12",
    "Group label": "criterion not met"
  },
  {
    "Compound structure": "Clc1ccccc1-c1nc(Nc2nc3ccccc3s2)nc(C(Cl)(Cl)Cl)n1",
    "Group label": "criterion not met"
  }
]

Then there is this compound:
Please let me know if "COc1cccc(-c2nn(-c3ccccc3)cc2-c2ccnc(NCCCNS(=O)(=O)c3cccc(F)c3)c2)c1" shows growth below 70%.
criterion met

====

Quick list: growth per entry.
# System: NCI-H460 lung
# Assay summary: NCI-60 one-dose screen, 48 h (100 = growth as untreated, 0 = no growth, -100 = all killed)
# Experimental setup: 10 µM unless noted
About 83,000 compounds went through this panel and 20% of them were active in at least one assay; those are over-represented in the sample as a whole. Active and inactive are the calls of the source. Rule for the calls: active = growth percent below 10; inactive = the rest.

[
  {
    "Compound structure": "Cc1ccncc1C(=O)O",
    "Assay readout": "growth",
    "Value observed": "99.6% (inactive)"
  },
  {
    "Compound structure": "Cc1ccc2oc(=O)cc(-c3sc(N4CCCCC4)nc3-c3ccccc3)c2c1",
    "Assay readout": "growth",
    "Value observed": "91.1% (inactive)"
  }
]

Look up growth of "C[C@@H](C(=O)O)c1ccc2c3cc(Cl)ccc3n(Cc3cc(=O)oc4ccc(Cl)cc34)c2c1" and report it.
111% (inactive)

Indicate the recorded growth value for this molecule: "Cc1nn2c(-c3nc4cc(Cl)c(Cl)cc4[nH]3)c(-c3ccc(F)cc3)nc2s1"
-13.4% (active)

Name the recorded growth of the molecule listed here: "Fc1ccc2[nH]cc(-c3nc(-c4c[nH]c5ncccc45)cs3)c2c1"
9.85% (active)

====

# Tested on: OVCAR-4 ovarian
# Assay summary: NCI-60 one-dose screen, 48 h (100 = growth as untreated, 0 = no growth, -100 = all killed)
# Experimental setup: 10 µM unless noted
The panel holds about 83,000 compounds, 20% with a hit somewhere; the sample as a whole holds those more often.
# label = class 1 if growth < 40% else class 0

[
  {
    "Compound structure": "Cc1csc(Nc2nc(-c3cccc(Br)c3)nc(C(Cl)(Cl)Cl)n2)n1",
    "Group label": "class 0"
  },
  {
    "Compound structure": "O=C1C(Cl)=C(Nc2ccc(S(=O)(=O)c3ccc(NC4=C(Cl)C(=O)c5ccccc5C4=O)cc3)cc2)C(=O)c2ccccc21",
    "Group label": "class 1"
  },
  {
    "Compound structure": "CC(=O)c1c(C)[nH]c(-c2nc3ccc(N4CCN(C)CC4)cc3[nH]2)c1-c1ccc(OCC2CCOCC2)cc1",
    "Group label": "class 1"
  }
]

Below 40% on growth? Entry "COC(=O)[C@]12CC[C@@H](C)[C@H](C)[C@@H]1C1=CC[C@@H]3[C@@]4(C)C[C@@H](O)[C@H](O)[C@@](C)(CO)C4=CC[C@@]3(C)[C@]1(C)CC2"
class 1

# strict comparison: is reported growth < 40%? input = "COc1ccc2c(c1)c(-c1nc(-c3c[nH]c4ncccc34)cs1)cn2CCCN1CCCCC1"
class 0

====

# System: 786-0 renal
# Assay summary: NCI-60 one-dose screen, 48 h (100 = growth as untreated, 0 = no growth, -100 = all killed)
# Experimental setup: 10 µM unless noted
The panel holds about 83,000 compounds, 20% with a hit somewhere; the sample as a whole holds those more often.
Assay readout: growth (%)
The reply should be a number in %, with the unit left off.

Consider the reported growth for these compounds:
[
  {
    "Compound": "CC(C)=CCC/C(C)=C/CC/C(C)=C/CC/C(C)=C/CSC[C@H](NC(=O)CCCCCN1CCN(C)CC1)C(=O)NC1CCCCC1",
    "growth / %": 83.7
  },
  {
    "Compound": "COc1ccc(CCN2C(=O)C(C)(C)SC2=S)cc1OC",
    "growth / %": 102
  },
  {
    "Compound": "O=C(N/N=C/c1ccccc1SSc1ccccc1/C=N/NC(=O)c1ccccc1)c1ccccc1",
    "growth / %": 23.6
  }
]

Report value: growth, system: 786-0 renal, compound: "N#CCCCCCn1c2ccccc2c2c3[nH]c(=O)[nH]c(=O)c3c3c4ccccc4n(CCCCCC#N)c3c21"
0.172

Given "COc1ccc(C2=NN(c3nc(-c4ccc(OC)cc4)c(C#N)c(=O)n3C)C(=O)CC2)cc1" , report its growth on 786-0 renal.
109

// output growth; input "COCCNC1=C(Cl)C(=O)c2ccccc2C1=O" ; system 786-0 renal
114

Find the measured growth of "C[Si](C)(C)Cc1ccccc1" with 786-0 renal as test system.
98

Check 786-0 renal data and give growth for "COc1cnc2c(c1)C(=O)c1c-2n(CCCNCCN2CCOCC2)c(=O)c2cc([N+](=O)[O-])ccc12" .
-53.6

GET growth where system = 786-0 renal and item = OCC1OC(n2cnc3c(Cl)ncnc32)CC1O (stereo not given)
107

Provide the reported growth (system: 786-0 renal) for "O=C1c2cccc3cccc(c23)C(=O)N1CC#Cc1ccc2c3c(cccc13)C(=O)N(CCO)C2=O"
98.1

Fill in: growth on 786-0 renal, entry "O=C1NC(=Nc2ccc(S(=O)(=O)Nc3nccs3)cc2)S/C1=C\c1coc2ccccc2c1=O"
111

====

// growth lookup, one value per entry
# Tested on: TK-10 renal
# Assay summary: NCI-60 one-dose screen, 48 h (100 = growth as untreated, 0 = no growth, -100 = all killed)
# Experimental setup: 10 µM unless noted
The panel holds about 83,000 compounds, 20% with a hit somewhere; the sample as a whole holds those more often.
# output: bare number, implied unit %

Give me measured growth, please, for this compound: "C=CC(=O)N[C@H](Cc1ccc(-c2cc(Cl)cc(Cl)c2)cc1)[C@H](O)[C@@H](O)C(=O)O"
81.7

Give recorded growth. "COc1ccc2nc(-c3c(-c4ccccc4)nc4ncccn34)[nH]c2c1"
109

====

# Test system: 786-0 renal
# Assay summary: NCI-60 one-dose screen, 48 h (100 = growth as untreated, 0 = no growth, -100 = all killed)
# Experimental setup: 10 µM unless noted
Compounds without any hit were thinned out: in the full panel of roughly 83,000, 20% have a hit.
Assay readout: growth (%)
API: value field is a number in %; no unit string.

[
  {
    "Molecule": "N#C/C(=C\\c1ccc(-c2cccc(C(F)(F)F)c2)o1)c1nc(-c2ccco2)cs1",
    "growth [%]": 102
  },
  {
    "Molecule": "Cc1cc(Cl)c2c(N(C)C)cccc2n1",
    "growth [%]": 102
  },
  {
    "Molecule": "CCC(=O)c1c(C)[nH]c(C)c1C",
    "growth [%]": 99.2
  },
  {
    "Molecule": "CN(C)CCCCC(C(=O)CBr)(c1ccccc1)c1ccccc1",
    "growth [%]": 5.16
  },
  {
    "Molecule": "Nc1nc(Br)nc2c1ncn2C1CC(O)C(CO)O1 (stereo not drawn)",
    "growth [%]": 62.8
  },
  {
    "Molecule": "C=C1C(=O)O[C@H]2[C@H]1CC/C(COC(=O)NCCc1c[nH]c3ccccc13)=C\\CC[C@@]1(C)O[C@@H]21",
    "growth [%]": -50.3
  },
  {
    "Molecule": "Cn1cc(-c2csc(-c3cn(C(=O)OC(C)(C)C)c4ccccc34)n2)c2cccnc21",
    "growth [%]": 76.6
  },
  {
    "Molecule": "COc1cc(-c2cc3ncccc3c3nc(OCCN(C)C)c4cccnc4c23)cc(OC)c1OC",
    "growth [%]": -88.5
  }
]

For the molecule CCOC(=O)c1ccc2c(c1)[n+](=O)c(C(=O)C1CCCS1)c(C(F)(F)F)n2[O-] (stereo not drawn) , report growth.
-92.3

Give growth for "COc1cc(-c2nc(-c3ccccc3)c(-c3ccccc3)[nH]2)cc(OC)c1O"
19.3

Note down growth recorded for "C=C1C(=O)O[C@H]2[C@H]1CC/C(Cn1cc(-c3ccc(F)cc3)nn1)=C\CC[C@@]1(C)O[C@@H]21"
-71.5

Please report the measured growth for "CCc1ccc(-c2ccc(Nc3ccccc3)nn2)cc1S(N)(=O)=O"
94.3

Look up growth of O=C(NC(Cc1cn(Cc2ccccc2)cn1)C(=O)O)OCC1c2ccccc2-c2ccccc21 (stereo not drawn) and report it.
102

For the molecule "O=C1NC(c2ccc(Cl)c(Cl)c2)=C/C1=C\c1ccccc1" , give its reported growth.
9.12

Note down growth recorded for "C=C1C(=O)O[C@H]2[C@H]1CC/C(COC(=O)NCc1cc3ccccc3[nH]1)=C\CC[C@@]1(C)O[C@@H]21"
-84.5
